- test_description: Toxicity against Vero cells after 72 hrs
- Assay type: cell-based
- condition_details: Chlorocebus sabaeus (African green monkey)
Task for the reader: assign each of the following molecules its reported IC50 at 72 h.
Only the number, expressed in µg/mL, is required.

Bench note: what IC50 at 72 h did NCCOCCNc1nnc(NCCOCCN)c2cc3ccccc3cc12 show?
67.3

Bench note: what IC50 at 72 h did O=C(Cn1ccnc1[N+](=O)[O-])NCc1ccccc1 show?
3.53

Bench note: what IC50 at 72 h did OCCOCCNc1nnc(NCCOCCO)c2cc3ccccc3cc12 show?
93.5

Bench note: what IC50 at 72 h did c1ccc(COCCCNc2nnc(NCCCOCc3ccccn3)c3cc4ccccc4cc23)nc1 show?
6.25
